Measured pKd of individual entries
# study-system: feline FcRn complex (FcRn-α subunit and β-microglobulin) (feline)
# assay-protocol: SPR (Biacore), FcRn on SA chip, pH 7.4
The scale used: pKd is minus the common logarithm of the concentration in molar units.

{"columns": ["binder", "pKd"],
 "data": [
  ["feline IgG1a mutant ID No. 327: S428Y, D312P, S434Y, P247V, T250Q (antibody, part only; not given: Variable domains, not shown: another chain or arm of the molecule; small tags and cut ends) constant: ASTTAPSVFPLAPSCGTTSGATVALACLVLGYFPEPVTVSWNSGALTSGVHTFPAVLQASGLYSLSSMVTVPSSRWLSDTFTCNVAHPPSNTKVDKTVRKTDHPPGPKPCDCPKCPPPEMLGGPSIFIFPPKVKDQLSISRTPEVTCLVVDLGPDDSDVQITWFVDNTQVYTAKTSPREEQFNSTYRVVSVLPILHQPWLKGKEFKCKVNSKSLPSPIERTISKAKGQPHEPQVYVLPPAQEELSRNKVSVTCLIKSFHPPDIAVEWEITGQPEPENNYRTTPPQLDSDGTYFVYSKLSVDRSHWQRGNTYTCSVYHEALHYHHTQKSLTQSPGK", 7.56],
  ["feline IgG1a mutant ID No. 299: S428Y, Q311W, D312P, L314K, S434Y (antibody, part only; not given: variable domains and light chain, not shown: another chain or arm of the molecule) constant: ASTTAPSVFPLAPSCGTTSGATVALACLVLGYFPEPVTVSWNSGALTSGVHTFPAVLQASGLYSLSSMVTVPSSRWLSDTFTCNVAHPPSNTKVDKTVRKTDHPPGPKPCDCPKCPPPEMLGGPSIFIFPPKPKDTLSISRTPEVTCLVVDLGPDDSDVQITWFVDNTQVYTAKTSPREEQFNSTYRVVSVLPILHWPWKKGKEFKCKVNSKSLPSPIERTISKAKGQPHEPQVYVLPPAQEELSRNKVSVTCLIKSFHPPDIAVEWEITGQPEPENNYRTTPPQLDSDGTYFVYSKLSVDRSHWQRGNTYTCSVYHEALHYHHTQKSLTQSPGK", 7.10],
  ["feline IgG1a mutant ID No. 292: S252Y, S428Y, Q311W, D312P, L314K, S434Y (antibody, part only; not given: variable domains and light chain, not shown: another chain or arm of the molecule; small tags and cut ends) constant: ASTTAPSVFPLAPSCGTTSGATVALACLVLGYFPEPVTVSWNSGALTSGVHTFPAVLQASGLYSLSSMVTVPSSRWLSDTFTCNVAHPPSNTKVDKTVRKTDHPPGPKPCDCPKCPPPEMLGGPSIFIFPPKPKDTLYISRTPEVTCLVVDLGPDDSDVQITWFVDNTQVYTAKTSPREEQFNSTYRVVSVLPILHWPWKKGKEFKCKVNSKSLPSPIERTISKAKGQPHEPQVYVLPPAQEELSRNKVSVTCLIKSFHPPDIAVEWEITGQPEPENNYRTTPPQLDSDGTYFVYSKLSVDRSHWQRGNTYTCSVYHEALHYHHTQKSLTQSPGK", 5.57]
]}

Query: Can you look up the measured pKd of feline IgG1a mutant ID No. 348: S252Y, S428M, S434F, Q311H (antibody, part only; not given: Variable domains, not shown: another chain or arm of the molecule) constant: ASTTAPSVFPLAPSCGTTSGATVALACLVLGYFPEPVTVSWNSGALTSGVHTFPAVLQASGLYSLSSMVTVPSSRWLSDTFTCNVAHPPSNTKVDKTVRKTDHPPGPKPCDCPKCPPPEMLGGPSIFIFPPKPKDTLYISRTPEVTCLVVDLGPDDSDVQITWFVDNTQVYTAKTSPREEQFNSTYRVVSVLPILHHDWLKGKEFKCKVNSKSLPSPIERTISKAKGQPHEPQVYVLPPAQEELSRNKVSVTCLIKSFHPPDIAVEWEITGQPEPENNYRTTPPQLDSDGTYFVYSKLSVDRSHWQRGNTYTCSVMHEALHFHHTQKSLTQSPGK for me?
Result: 7.97

Query: Can you look up the measured pKd of feline IgG1a mutant ID No. 346: S252Y, S428M, S434F, G402R (antibody, part only; not given: Variable domains, not shown: another chain or arm of the molecule) constant: ASTTAPSVFPLAPSCGTTSGATVALACLVLGYFPEPVTVSWNSGALTSGVHTFPAVLQASGLYSLSSMVTVPSSRWLSDTFTCNVAHPPSNTKVDKTVRKTDHPPGPKPCDCPKCPPPEMLGGPSIFIFPPKPKDTLYISRTPEVTCLVVDLGPDDSDVQITWFVDNTQVYTAKTSPREEQFNSTYRVVSVLPILHQDWLKGKEFKCKVNSKSLPSPIERTISKAKGQPHEPQVYVLPPAQEELSRNKVSVTCLIKSFHPPDIAVEWEITGQPEPENNYRTTPPQLDSDRTYFVYSKLSVDRSHWQRGNTYTCSVMHEALHFHHTQKSLTQSPGK for me?
Result: 8.00

Query: Can you look up the measured pKd of feline IgG1a mutant ID No. 347: S252Y, S428M, S434F, L314K (antibody, part only; not given: variable domains and light chain, not shown: another chain or arm of the molecule) constant: ASTTAPSVFPLAPSCGTTSGATVALACLVLGYFPEPVTVSWNSGALTSGVHTFPAVLQASGLYSLSSMVTVPSSRWLSDTFTCNVAHPPSNTKVDKTVRKTDHPPGPKPCDCPKCPPPEMLGGPSIFIFPPKPKDTLYISRTPEVTCLVVDLGPDDSDVQITWFVDNTQVYTAKTSPREEQFNSTYRVVSVLPILHQDWKKGKEFKCKVNSKSLPSPIERTISKAKGQPHEPQVYVLPPAQEELSRNKVSVTCLIKSFHPPDIAVEWEITGQPEPENNYRTTPPQLDSDGTYFVYSKLSVDRSHWQRGNTYTCSVMHEALHFHHTQKSLTQSPGK for me?
Result: 7.98

Query: Can you look up the measured pKd of feline IgG1a mutant ID No. 356: S252Y, S428M, S434F, T403R (antibody, part only; not given: Variable domains, not shown: another chain or arm of the molecule) constant: ASTTAPSVFPLAPSCGTTSGATVALACLVLGYFPEPVTVSWNSGALTSGVHTFPAVLQASGLYSLSSMVTVPSSRWLSDTFTCNVAHPPSNTKVDKTVRKTDHPPGPKPCDCPKCPPPEMLGGPSIFIFPPKPKDTLYISRTPEVTCLVVDLGPDDSDVQITWFVDNTQVYTAKTSPREEQFNSTYRVVSVLPILHQDWLKGKEFKCKVNSKSLPSPIERTISKAKGQPHEPQVYVLPPAQEELSRNKVSVTCLIKSFHPPDIAVEWEITGQPEPENNYRTTPPQLDSDGRYFVYSKLSVDRSHWQRGNTYTCSVMHEALHFHHTQKSLTQSPGK for me?
Result: 8.00

Query: Can you look up the measured pKd of feline IgG1a mutant ID No. 252: S428M, S434F (antibody, part only; not given: variable domains and light chain, not shown: another chain or arm of the molecule) constant: ASTTAPSVFPLAPSCGTTSGATVALACLVLGYFPEPVTVSWNSGALTSGVHTFPAVLQASGLYSLSSMVTVPSSRWLSDTFTCNVAHPPSNTKVDKTVRKTDHPPGPKPCDCPKCPPPEMLGGPSIFIFPPKPKDTLSISRTPEVTCLVVDLGPDDSDVQITWFVDNTQVYTAKTSPREEQFNSTYRVVSVLPILHQDWLKGKEFKCKVNSKSLPSPIERTISKAKGQPHEPQVYVLPPAQEELSRNKVSVTCLIKSFHPPDIAVEWEITGQPEPENNYRTTPPQLDSDGTYFVYSKLSVDRSHWQRGNTYTCSVMHEALHFHHTQKSLTQSPGK for me?
Result: 7.56
